tested_on: T1, 4H993-AA
T1 chain: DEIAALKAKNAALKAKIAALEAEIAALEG
protocol: two-hybrid library CCmax;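 note: natural log of median RNA to DNA barcode read ratio; higher means stronger binding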
experimental_parameters: mean of both orientations
Record form. Attribute: interaction score. Fill in for each entry.
// response body must contain only the number

I'd like to know its interaction score. The binder in question is DEIAALKAKIAALKAKNAALEAEIAALEG [4H881-AA]
1.82

Please do the same for DEIAALKAKIAALEAEIAALKAENAALKG [4H780-AA] as well.
-1.51

Please do the same for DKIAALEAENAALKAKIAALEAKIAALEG [4H2277-AA] as well.
0.398

Please do the same for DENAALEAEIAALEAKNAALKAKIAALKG [4H1086-AA] as well.
-0.479
